EC50 listing for selected compounds.
target entity: CXCR7 (Homo sapiens, UniProt P25106)
Sequence (P25106 whole entry): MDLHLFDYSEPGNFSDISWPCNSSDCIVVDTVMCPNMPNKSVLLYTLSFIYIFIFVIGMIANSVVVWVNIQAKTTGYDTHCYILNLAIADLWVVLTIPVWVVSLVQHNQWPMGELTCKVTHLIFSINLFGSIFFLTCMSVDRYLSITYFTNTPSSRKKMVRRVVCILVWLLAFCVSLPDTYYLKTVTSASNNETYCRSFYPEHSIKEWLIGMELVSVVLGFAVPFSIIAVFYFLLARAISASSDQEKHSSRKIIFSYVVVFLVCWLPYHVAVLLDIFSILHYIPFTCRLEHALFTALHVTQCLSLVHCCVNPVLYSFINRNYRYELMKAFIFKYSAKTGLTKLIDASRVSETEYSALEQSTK
Sequence (P32121 whole entry partner): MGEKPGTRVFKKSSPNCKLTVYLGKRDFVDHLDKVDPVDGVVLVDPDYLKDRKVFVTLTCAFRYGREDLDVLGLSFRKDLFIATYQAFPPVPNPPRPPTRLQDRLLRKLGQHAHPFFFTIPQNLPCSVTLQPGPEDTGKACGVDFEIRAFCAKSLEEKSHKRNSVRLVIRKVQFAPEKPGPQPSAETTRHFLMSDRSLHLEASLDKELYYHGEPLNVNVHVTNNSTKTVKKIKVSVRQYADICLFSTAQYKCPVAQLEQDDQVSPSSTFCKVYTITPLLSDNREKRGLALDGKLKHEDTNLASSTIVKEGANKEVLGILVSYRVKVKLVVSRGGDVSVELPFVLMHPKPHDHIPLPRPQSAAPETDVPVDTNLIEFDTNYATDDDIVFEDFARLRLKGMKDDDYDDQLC
test name: PathHunter CHO-K1 CXCR7 b-arrestin recruitment assay (CXCR7 agonistic activity)
measurement context: PathHunter CHO-K1 CXCR7 b-arrestin cell line

# compound, EC50
data = [
    ("CN(C)CCN(Cc1ccccc1C(F)(F)F)C(=O)NCc1cccc2c1CCN(CC1CC1)C2 [Example 568]", "29 nM"),
    ("CNCCN(Cc1ccccc1C(F)(F)F)C(=O)CNc1cccc2c1CCN(C(C)=O)C2 [compound 445]", "11 nM"),
    ("CC(C)(C)OC(=O)N1CCC(N(Cc2ccccc2C(F)(F)F)C(=O)CNc2cccc3c2CCN(CC2CC2)C3)CC1 [Example 252]", "426 nM"),
    ("CN(C)CCN(Cc1ccccc1)C(=O)CNc1cccc2c1CN(C)C2 [Example 208]", "248 nM"),
    ("CN(C)CCN(Cc1ccccc1Cl)C(=O)CNc1cccc2c1CCN(CC1CC1)C2 [compound 134]", "2 nM"),
    ("COCCN1CCc2c(CCC(=O)N(Cc3ccccc3C(F)(F)F)CC(C)(C)O)cccc2C1 [Example 341]", "397 nM"),
]

Request the reported EC50 associated with COCCN1CCc2c(cccc2NCC(=O)N(CCN(C)CCF)Cc2ccccc2C(F)(F)F)C1 [Example 302]
27 nM

Also NCCN(Cc1ccc(C(F)(F)F)cc1)C(=O)CNc1cccc2c1CCN(CC1CC1)C2 [Example 73] ?
66 nM
